Tested on: K4 kissing-loop RNA reporter;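 also: bound reporter read as fluorescence of individual clusters on recovered sequencing chips by microscopy, with normalized cluster intensities fitted with a binding model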
ASSAY OVERVIEW: apparent KD of K4 kissing-loop reporter; higher = weaker reporter binding
DETAILS: Eterna round: R107; input ligand: theophylline 20 uM
QUANTITY: apparent KD of K4 kissing-loop reporter (nM)

- AUUUUUUUGUCAGGAUAUUAGUGUUGGUUUGGUUUGUUAGUGAUGUUGAUAUUUGUUUUAUGUAUUUAAGAAGGGAUUUAGCUGU [ppdemullin]: 427
- AAUAAUAAUAAAUAUAGAUUGAUGAGGAAACGAGGACCGGUACGGCCGCCACUCGAGUGAUGUUCGAGAACCUCAUCAAUCAUAA [AK4.7 Exc Tryptophan A]: 154
- GCUCGGGAGUGAUGUUCCAAGUGGUGUUAACGAGGACCGGUACGGCCGCCACUCGAUACGGCCGGACCGUAGGAUAAACUGGAGC [Same State - Tryptophan A (Freestyle 12)]: 185

Hello, the source for this data is the supplement of paper PMC9170038, in case you need it.
